- Tested on: Vibrio cholerae
- protocol-summary: growth AUC normalised to DMSO control (fraction of control); higher = less growth inhibition, active = hit call of the paper
- setup-conditions: 20 µM
Structures can show the parent of a compound that is named as a salt.
Listed below: growth AUC normalised to DMSO control values for each entry.

Take a look at these entries with their results.
# molecule, growth AUC normalised to DMSO control
data = [
    ("Cc1cccc(CN2CCN(C(c3ccccc3)c3ccc(Cl)cc3)CC2)c1 (configuration not stated) [Meclozine dihydrochloride]", "0.885 (inactive)"),
    ("COc1cc(NC(C)CCCN)c2ncccc2c1 (configuration not stated) [Primaquine diphosphate]", "1.01 (inactive)"),
    ("O=C(O)/C=C/c1ccc(Cn2ccnc2)cc1 [Ozagrel hydrochloride]", "0.995 (inactive)"),
    ("O=C1Cc2cc(CCN3CCN(c4nsc5ccccc45)CC3)c(Cl)cc2N1 [Ziprasidone hydrochloride monohydrate]", "1.01 (inactive)"),
    ("NC[C@H]1CC[C@H](C(=O)O)CC1 [Tranexamic acid]", "1.04 (inactive)"),
    ("COc1ccc(-c2cc(=S)ss2)cc1 [Anethole-trithione]", "0.91 (inactive)"),
    ("Cc1nnc(NS(=O)(=O)c2ccc(N)cc2)s1 [Sulfamethizole]", "0.978 (inactive)"),
    ("O=c1[nH]cnc2c1ncn2[C@H]1CC[C@@H](CO)O1 [Didanosine]", "1.04 (inactive)"),
]

Now, please, on to the next molecule.
Prompt: What value of measured growth AUC normalised to DMSO control is listed for CC(C)NC[C@H](O)COc1cccc2ccccc12 [(S)-(-)-Propranolol hydrochloride] ?
Completion: 1.01 (inactive)

Origin of measurements: the supplement of paper PMC12350171
